Cited source: the supplement of paper PMC6897291

System: U-2932
Experiment: growth inhibition by drug plus 177Lu-lilotomab satetraxetan (1 - RLU/untreated control) (fraction); higher = stronger inhibition
Settings: 10 nM; time (day): 5; 177Lu-lilotomab satetraxetan 1 ug/ml
Structures can show the parent of a compound that is named as a salt.
Measured Metric: growth inhibition by drug plus 177Lu-lilotomab satetraxetan

Req: Entry CNNCc1ccc(C(=O)NC(C)C)cc1 [Procarbazine hydrochloride (Matulane)] : reported growth inhibition by drug plus 177Lu-lilotomab satetraxetan = ?
Resp: 0.15

Req: Endpoint output: growth inhibition by drug plus 177Lu-lilotomab satetraxetan of C=CC(=O)N1CCC[C@@H](n2nc(-c3ccc(Oc4ccccc4)cc3)c3c(N)ncnc32)C1 . Value?
Resp: 0.568

Req: # get_value(readout='growth inhibition by drug plus 177Lu-lilotomab satetraxetan', item= C[C@@H](N)[C@H]1CC[C@H](C(=O)Nc2ccncc2)CC1 )
Resp: 0.0633

Req: What value of measured growth inhibition by drug plus 177Lu-lilotomab satetraxetan is listed for O=C(NCCCNc1nc(Nc2cccc(NC(=O)N3CCCC3)c2)ncc1I)c1cccs1 ?
Resp: 0.304

Req: # input molecule: O=C(NOC[C@H](O)CO)c1ccc(F)c(F)c1Nc1ccc(I)cc1F ; wanted: its growth inhibition by drug plus 177Lu-lilotomab satetraxetan
Resp: 0.15

---

System: RIVA
Assay: growth inhibition by drug alone (1 - RLU/untreated control) (fraction); higher = stronger inhibition
Conditions: 100 nM; time (day): 6; 177Lu-lilotomab satetraxetan 0 ug/ml
Where a name gives a salt, the structure may show the parent alone.
Measured Metric: growth inhibition by drug alone
Please reply with the number alone, leaving off any unit.

Req: Entry COc1cc2nccc(Oc3ccc(NC(=O)Nc4cc(C)on4)c(Cl)c3)c2cc1OC : reported growth inhibition by drug alone = ?
Resp: 0.00134

Req: Requested field: growth inhibition by drug alone. Item: CNC(=O)c1ccc(N2C(=S)N(c3ccc(C#N)c(C(F)(F)F)c3)C(=O)C2(C)C)cc1F [MDV3100 (Enzalutamide)]
Resp: -0.21

Req: # get_value(readout='growth inhibition by drug alone', item= CC1(C)CNc2cc(NC(=O)c3cccnc3NCc3ccncc3)ccc21 [Motesanib Diphosphate] )
Resp: -0.452

Req: Please report the recorded growth inhibition by drug alone for Cc1ccc(NC(=O)c2ccc(CN3CC[C@H](N(C)C)C3)c(C(F)(F)F)c2)cc1Nc1nccc(-c2cncnc2)n1 .
Resp: -0.275

Req: // growth inhibition by drug alone lookup, key: CN(C)C[C@@H]1CCn2cc(c3ccccc32)C2=C(C(=O)NC2=O)c2cn(c3ccccc23)CCO1
Resp: -0.0383

Req: Given CCc1cc(-c2n[nH]c(C)c2-c2ccc3c(c2)OCCO3)c(O)cc1O , state its recorded growth inhibition by drug alone.
Resp: -0.629

Req: I'd like to know its growth inhibition by drug alone. The compound in question is O=C(O)c1ccc2cc(-c3ccc(O)c(C45CC6CC(CC(C6)C4)C5)c3)ccc2c1
Resp: -0.353

Req: If you can, please state the reported growth inhibition by drug alone value of COc1cccc2c1C(=O)c1c(O)c3c(c(O)c1C2=O)C[C@@](O)(C(=O)CO)C[C@@H]3O[C@H]1C[C@H](N)[C@H](O)[C@H](C)O1 .
Resp: 0.915

Req: Requested read-out: growth inhibition by drug alone. Entry: CCN1CCN(Cc2ccc(-c3cc4c(N[C@H](C)c5ccccc5)ncnc4[nH]3)cc2)CC1
Resp: -0.348

Req: I would be grateful if you could share the reported growth inhibition by drug alone for CCN(CC)CCNC(=O)c1c(C)[nH]c(/C=C2\C(=O)Nc3ccc(F)cc32)c1C [Sunitinib Malate (Sutent)] .
Resp: -0.492

Req: Consider the compound shown here: COc1cc2/c(=N/c3ccc(Br)cc3F)nc[nH]c2cc1OCC1CCN(C)CC1 [Vandetanib (Zactima)] What is its recorded growth inhibition by drug alone?
Resp: -0.441

Req: Look up growth inhibition by drug alone: NC(=O)c1ccc(-c2nc(-c3ccccn3)c(-c3ccc4c(c3)OCO4)[nH]2)cc1
Resp: -0.245

Req: Find the recorded growth inhibition by drug alone belonging to CO[C@H]1/C=C\C=C(/C)C(=O)NC2=CC(=O)C(NCCN(C)C)=C(C[C@@H](C)C[C@H](OC)[C@H](O)[C@@H](C)/C=C(\C)[C@@H]1OC(N)=O)C2=O [17-DMAG HCl (Alvespimycin)] and report it.
Resp: 0.96

Req: Which value of growth inhibition by drug alone has been reported for CNC(=O)c1ccc(C)c(-n2c(C)cc(OCc3ccc(F)cc3F)c(Br)c2=O)c1 in the records?
Resp: -0.224

Req: Report growth inhibition by drug alone for OC[C@H]1O[C@@H](n2cnc3c2N=CNC[C@H]3O)C[C@@H]1O please.
Resp: -0.387
